Please respond with reported pIC50 for every item in the list.
Just the number, please; pIC50 means minus log10 of the concentration in mol/L.

The reported pIC50 value, UniProt:Q9BY41, for CCCCCCC(CCCCCC(=O)Nc1ccccc1)C(=O)NO (stereo not given) reads 5.70

# CCCCCC[C@@H](CCCCCC(=O)Nc1ccccc1)C(=O)NO with UniProt:Q9BY41: pIC50 is 5.51

Lab note: compound CCCCCC(CCCCCC(=O)Nc1ccccc1)C(=O)NO (stereo not given) tested on UniProt:Q9BY41; recorded pIC50 was 5.89

Value sought: pIC50, system UniProt:Q9BY41, item O=C(CCCCCC(Cc1ccccc1)C(=O)NO)Nc1ccccc1 (stereo not given) . Result: 5.92

GET /values?item= CCCCCC[C@H](CCCCCC(=O)Nc1ccccc1)C(=O)NO &system= UniProt:Q9BY41 returns pIC50: 6.15
